# Test system: CCRF-CEM leukemia
# methodNotes: NCI tumour cell line growth inhibition, 48 h

[
  {
    "compound": "NS(=O)(=O)c1ccc(-n2ncc3c(Nc4ccccc4)ncnc32)cc1",
    "systemTested": "CCRF-CEM leukemia",
    "TGI": "92.5 µM"
  },
  {
    "compound": "CN[C@@H](C)[C@@H](O)c1ccccc1",
    "systemTested": "CCRF-CEM leukemia",
    "TGI": "> 10 µM"
  },
  {
    "compound": "COc1c2ccsc2c(OC)c2ccsc12",
    "systemTested": "CCRF-CEM leukemia",
    "TGI": "> 100 µM"
  },
  {
    "compound": "CCCCCCCCCCCCCCCCCC(=O)Nc1ccn(C2CCC(COP(=O)(O)O)O2)c(=O)n1 (centres undefined)",
    "systemTested": "CCRF-CEM leukemia",
    "TGI": "> 100 µM"
  },
  {
    "compound": "Cc1ccc(C2=C(c3ccc(C)cc3)C(c3ccc(C)cc3)=C(c3ccc(C)cc3)C2=O)cc1",
    "systemTested": "CCRF-CEM leukemia",
    "TGI": "> 100 µM"
  },
  {
    "compound": "CC(=O)OCC12CCC3C4(C)CCCC(C)(C)C4CCC3(C)C1CC(C1=CC(=O)OC1O)O2 (centres undefined)",
    "systemTested": "CCRF-CEM leukemia",
    "TGI": "> 10 µM"
  },
  {
    "compound": "O=C(NC1C2CC3CC(C2)CC1C3)/C(Cl)=C1/Sc2ccccc2NC1=O (centres undefined)",
    "systemTested": "CCRF-CEM leukemia",
    "TGI": "> 100 µM"
  },
  {
    "compound": "COCC12CCC(OC)C34C5CC6(O)C(OC)CC(OC(C)=O)(C5C6OC(=O)c5ccccc5)C(C(OC)C13)C4N(C)C2 (centres undefined)",
    "systemTested": "CCRF-CEM leukemia",
    "TGI": "> 100 µM"
  },
  {
    "compound": "Cc1cc(C)c(S(=O)(=O)N(CCc2cccc(Br)c2)Cc2ccc(-c3cccc(S(C)(=O)=O)c3)cc2)c(C)c1",
    "systemTested": "CCRF-CEM leukemia",
    "TGI": "> 100 µM"
  }
]
